Biological target: recombinant human 17β-hydroxysteroid dehydrogenase type 1 (Homo sapiens, UniProt P14061)
Construct: made in house; host or cells: Sf9 insect cells (baculovirus, Bac to Bac Expression System)
Sequence (P14061 1-328): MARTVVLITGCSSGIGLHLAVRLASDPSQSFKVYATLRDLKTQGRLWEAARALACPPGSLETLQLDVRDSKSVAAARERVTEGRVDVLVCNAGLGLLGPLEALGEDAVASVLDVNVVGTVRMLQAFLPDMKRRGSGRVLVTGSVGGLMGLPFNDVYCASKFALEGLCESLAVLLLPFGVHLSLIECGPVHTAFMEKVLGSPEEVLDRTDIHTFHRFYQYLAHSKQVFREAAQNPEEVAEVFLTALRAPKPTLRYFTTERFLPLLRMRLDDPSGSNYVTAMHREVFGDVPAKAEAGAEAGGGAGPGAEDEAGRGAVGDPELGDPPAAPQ
Assay: Inhibition of recombinant human 17β-hydroxysteroid dehydrogenase type 1 (conversion of 3H-estrone to estradiol, HPLC radiodetection)
Type: biochemical
Settings: inhibitor 1 µm; 30 nM 3H-estrone, 1 mM NADPH, 30 min at RT; read-out: Inhibition of rec 17β-HSD1
observationType: inhibition (%)
Numbers only here, please. The scale is %.

# returns recorded inhibition (system: recombinant human 17β-hydroxysteroid dehydrogenase type 1 (Homo sapiens, UniProt P14061)) for C[C@]12CC[C@@H]3c4ccc(O)cc4CC[C@H]3[C@@H]1[C@H](CCCC(=O)N1CCOCC1)CC2(F)F
81.6

====

Target: recombinant human 17β-hydroxysteroid dehydrogenase type 1 (Homo sapiens)
Construct: made in house; host or cells: Sf9 insect cells (baculovirus, Bac to Bac Expression System)
Assay: Inhibition of recombinant human 17β-hydroxysteroid dehydrogenase type 1 (conversion of 3H-estrone to estradiol, HPLC radiodetection)
Assay type: biochemical
Details: inhibitor 1 µm; 30 nM 3H-estrone, 1 mM NADPH, 30 min at RT; read-out: Inhibition of rec 17β-HSD1
inhibition for assorted molecules
Numbers only here, please. The scale is %.

1. CCN(CC)C(=O)CC[C@@H]1CC(F)(F)[C@@]2(C)CC[C@@H]3c4ccc(O)cc4CC[C@H]3[C@H]12    90.6
2. Cc1cccc2c(CCNC(=O)CCC[C@H]3CC(F)(F)[C@@]4(C)CC[C@@H]5c6ccc(O)cc6CC[C@H]5[C@H]34)c[nH]c12    68.3
3. CCOc1cc2c(cc1O)CC[C@H]1[C@@H]3[C@@H](CCCC(=O)N4CCCCC4)CC(=O)[C@@]3(C)CC[C@H]21    71.9

Bench note: what inhibition did COc1ccc(CCN(C)C(=O)CCC[C@H]2CC(F)(F)[C@@]3(C)CC[C@@H]4c5ccc(O)cc5CC[C@H]4[C@H]23)cc1OC show?
82.4

Also check C[C@]12CC[C@@H]3c4ccc(O)cc4CC[C@H]3[C@@H]1[C@H](CCC(=O)NC1CCCCC1)CC2(F)F
92.5

Also check CCCc1cc2c(cc1O)CC[C@H]1[C@@H]3[C@H](CCCC(=O)NCc4ccc5c(c4)OCO5)CC(=O)[C@@]3(C)CC[C@H]21
73.6

Also check C[C@]12CC[C@@H]3c4ccc(O)cc4CC[C@H]3[C@@H]1[C@@H](CCCC(=O)NC1CCCCC1)CC2(F)F
70.6

Also check C[C@]12CC[C@@H]3c4ccc(OCc5ccccc5)cc4CC[C@H]3[C@@H]1[C@H](C/C=C/C(=O)N1CCOCC1)c1cnoc12
74

Also check C[C@]12CC[C@@H]3c4ccc(O)cc4CC[C@H]3[C@@H]1[C@@H](CCCC(=O)N1CCCCC1)CC2(F)F
76.9

====

Biological target: recombinant human 17β-hydroxysteroid dehydrogenase type 1 (Homo sapiens)
Construct: made in house; host or cells: Sf9 insect cells (baculovirus, Bac to Bac Expression System)
Experiment: Inhibition of recombinant human 17β-hydroxysteroid dehydrogenase type 1 (conversion of 3H-estrone to estradiol, HPLC radiodetection)
Type: biochemical
Details: inhibitor 1 µm; 30 nM 3H-estrone, 1 mM NADPH, 30 min at RT; read-out: Inhibition of rec 17β-HSD1
observationType: inhibition

Previously resolved entries follow.
1. CCCc1cc2c(cc1O)CC[C@H]1[C@@H]3[C@H](CCCC(=O)NCc4ccccc4)CC(=O)[C@@]3(C)CC[C@H]21 [Example 2]    74.8%
2. COc1cc2c(cc1O)CCC1C2CCC2(C)C(=O)CC(CCCC(=O)N3CCCCC3)C12 (stereo not shown) [Example 78]    72%
3. C[C@]12CC[C@@H]3c4ccc(O)cc4CC[C@H]3[C@@H]1[C@H](CCC(=O)NCc1ccccc1)CC2(F)F [Example 125]    76.9%
4. CCCc1cc2c(cc1O)CC[C@H]1[C@@H]3[C@H](CCCC(=O)NCc4ccc(F)cc4F)CC(=O)[C@@]3(C)CC[C@H]21 [Example 42]    71.7%

Bench note: what inhibition did COc1cc2c(cc1O)CC[C@H]1[C@@H]3[C@@H](CCCC(=O)NCc4ccccc4)CC(=O)[C@@]3(C)CC[C@H]21 [Example 71] show?
70.6%

Also check CCCc1cc2c(cc1O)CC[C@H]1[C@@H]3[C@H](CCCC(=O)N(C)CCc4ccc(OC)c(OC)c4)CC(=O)[C@@]3(C)CC[C@H]21 [Example 38]
76.7%

====

Target: recombinant human 17β-hydroxysteroid dehydrogenase type 1 (Homo sapiens)
Construct: made in house; host or cells: Sf9 insect cells (baculovirus, Bac to Bac Expression System)
Assay: Inhibition of recombinant human 17β-hydroxysteroid dehydrogenase type 1 (conversion of 3H-estrone to estradiol, HPLC radiodetection)
Assay type: biochemical
Settings: inhibitor 1 µm; 30 nM 3H-estrone, 1 mM NADPH, 30 min at RT; read-out: Inhibition of rec 17β-HSD1
observationType: inhibition (%)
Numbers only here, please. The scale is %.

1. CCCc1cc2c(cc1O)CC[C@H]1[C@@H]3[C@H](CCCC(=O)NCc4cccnc4)CC(=O)[C@@]3(C)CC[C@H]21 [Example 32]    79
2. COc1cc(CNC(=O)CC[C@@H]2CC(F)(F)[C@@]3(C)CC[C@@H]4c5ccc(O)cc5CC[C@H]4[C@H]23)cc(OC)c1 [Example 128]    71.7
3. C[C@]12CC[C@@H]3c4ccc(O)cc4CC[C@H]3[C@@H]1[C@H](CCC(=O)NCc1ccc3c(c1)OCO3)CC2(F)F [Example 122]    77.9
4. C[C@]12CC[C@@H]3c4ccc(O)cc4CC[C@H]3[C@@H]1[C@H](CCC(=O)NCc1ccc(O)c(O)c1)CC2(F)F [Example 127]    81.3
5. CCCc1cc2c(cc1O)CC[C@H]1[C@@H]3[C@H](CCCC(=O)Nc4ccc5cn[nH]c5c4)CC(=O)[C@@]3(C)CC[C@H]21 [Example 40]    75.8

Bench note: what inhibition did CCOc1cc2c(cc1O)CC[C@H]1[C@@H]3[C@@H](CCCC(=O)NCc4ccc5c(c4)OCO5)CC(=O)[C@@]3(C)CC[C@H]21 [Example 45] show?
75.7

====

inhibition for assorted molecules
Target: recombinant human 17β-hydroxysteroid dehydrogenase type 1 (Homo sapiens, UniProt P14061)
Construct: made in house; host or cells: Sf9 insect cells (baculovirus, Bac to Bac Expression System)
Test: Inhibition of recombinant human 17β-hydroxysteroid dehydrogenase type 1 (conversion of 3H-estrone to estradiol, HPLC radiodetection)
Format: biochemical
Details: inhibitor 1 µm; 30 nM 3H-estrone, 1 mM NADPH, 30 min at RT; read-out: Inhibition of rec 17β-HSD1
Numbers only here, please. The scale is %.

Previously resolved entries follow.
1) CCOc1cc2c(cc1O)CC[C@H]1[C@@H]3[C@@H](CCCC(=O)NC4CCCCC4)CC(=O)[C@@]3(C)CC[C@H]21    75
2) COc1cc2c(cc1O)CC[C@H]1[C@@H]3[C@@H](CCCC(=O)Nc4ccc5cn[nH]c5c4)CC(=O)[C@@]3(C)CC[C@H]21    71.6

Next up:
Bench note: what inhibition did C[C@]12CC[C@@H]3c4ccc(O)cc4CC[C@H]3[C@@H]1[C@@H](CCCC(=O)NCc1ccccc1)CC2(F)F show?
68

====

Target: recombinant human 17β-hydroxysteroid dehydrogenase type 1 (Homo sapiens)
Construct: made in house; host or cells: Sf9 insect cells (baculovirus, Bac to Bac Expression System)
Sequence (P14061 1-328): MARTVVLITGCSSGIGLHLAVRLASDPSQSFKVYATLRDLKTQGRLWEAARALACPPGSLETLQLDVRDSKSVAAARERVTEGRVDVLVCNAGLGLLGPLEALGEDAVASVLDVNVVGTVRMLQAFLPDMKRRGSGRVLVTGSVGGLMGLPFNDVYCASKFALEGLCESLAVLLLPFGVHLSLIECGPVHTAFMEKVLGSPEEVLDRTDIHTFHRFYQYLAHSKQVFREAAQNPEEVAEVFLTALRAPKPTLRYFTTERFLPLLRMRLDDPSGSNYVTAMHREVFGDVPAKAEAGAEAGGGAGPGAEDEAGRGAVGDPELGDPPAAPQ
Assay: Inhibition of recombinant human 17β-hydroxysteroid dehydrogenase type 1 (conversion of 3H-estrone to estradiol, HPLC radiodetection)
Type: biochemical
Conditions: inhibitor 1 µm; 30 nM 3H-estrone, 1 mM NADPH, 30 min at RT; read-out: Inhibition of rec 17β-HSD1
Method: 17β-HSD1 purification: Recombinant baculovirus was generated by the "Bac to Bac Expression System" (Invitrogen). Recombinant bacmid was transfected to Sf9 insect cells using "Cellfectin Reagent" (Invitrogen). 60h later cells were harvested; the microsomal fraction was isolated as described by Puranen et al. (1994). Aliquots were stored frozen until determination of enzymatic activity. […]
observationType: inhibition (%)
Numbers only here, please. The scale is %.

Previously resolved entries follow.
1) CCCc1cc2c(cc1O)CC[C@H]1[C@@H]3[C@H](CCCC(=O)N(C)Cc4ccccc4)CC(=O)[C@@]3(C)CC[C@H]21 [Example 37]    74.7
2) COCCc1cc2c(cc1O)CC[C@H]1[C@@H]3[C@H](CCCC(=O)NCc4ccccc4)CC(=O)[C@@]3(C)CC[C@H]21 [Example 3]    71.2
3) COc1ccc(CCN(C)C(=O)CC[C@@H]2CC(F)(F)[C@@]3(C)CC[C@@H]4c5ccc(O)cc5CC[C@H]4[C@H]23)cc1OC [Example 134]    88.6
4) C[C@]12CC[C@@H]3c4ccc(O)cc4CC[C@H]3[C@@H]1[C@@H](CCCC(=O)NCc1ccc(O)c(O)c1)CC2(F)F [Example 109]    70.7
5) CCCc1cc2c(cc1O)CC[C@H]1[C@@H]3[C@H](CCCC(=O)NCCOC)CC(=O)[C@@]3(C)CC[C@H]21 [Example 41]    70.4

Bench note: what inhibition did C[C@]12CC[C@@H]3c4ccc(O)cc4CC[C@H]3[C@@H]1[C@H](CCC(=O)N1CCCCC1)CC2(F)F [Example 131] show?
71.9

Also check CCOc1cc2c(cc1O)CC[C@H]1[C@@H]3[C@@H](CCCC(=O)Nc4ccc5cn[nH]c5c4)CC(=O)[C@@]3(C)CC[C@H]21 [Example 59]
69.7
